Reported IC50 values for the following molecules.
# tested-target: RORγ receptor (Homo sapiens)
# measurement-notes: RORγ Gal4 reporter assay (Gal4-luciferase, inverse agonist activity)
# Type: cell-based
# condition-notes: Jurkat cells stably over-expressing hRORγ; Gal4-luciferase reporter; overnight incubation; read-out: RORγ Gal4, IC50
result-type: IC50 (nM)

INSERT INTO results (molecule, tested_target, result_type, units_text, data_value) VALUES
  ('O=C(N[C@@H]1CC[C@@]2(S(=O)(=O)c3ccc(F)cc3)c3ccc(C(F)(C(F)(F)F)C(F)(F)F)cc3CC[C@@H]12)C1(O)CCS(=O)(=O)CC1 [Example 144]', 'RORγ receptor (Homo sapiens)', 'IC50', 'nM', 40),
  ('CC(NS(=O)(=O)c1nc[nH]n1)[C@@H]1CC[C@@]2(S(=O)(=O)c3ccc(F)cc3)c3ccc(C(F)(C(F)(F)F)C(F)(F)F)cc3CC[C@@H]12 (some centres unmarked) [Example 274]', 'RORγ receptor (Homo sapiens)', 'IC50', 'nM', 62),
  ('CC(C)(N)[C@H](N)C(=O)N[C@@H]1CC[C@@]2(S(=O)(=O)c3ccc(F)cc3)c3ccc(C(F)(C(F)(F)F)C(F)(F)F)cc3CC[C@@H]12', 'RORγ receptor (Homo sapiens)', 'IC50', 'nM', 17),
  ('O=C([C@@H]1CC[C@@]2(S(=O)(=O)c3ccc(F)cc3)c3ccc(C(F)(C(F)(F)F)C(F)(F)F)cc3CC[C@@H]12)N1CC(F)(F)C[C@@H]1CO', 'RORγ receptor (Homo sapiens)', 'IC50', 'nM', 37),
  ('O=C(O)C1CC2(C1)CC(C(=O)N[C@@H]1CC[C@@]3(S(=O)(=O)c4ccc(F)cc4)c4ccc(C(F)(C(F)(F)F)C(F)(F)F)cc4CC[C@@H]13)C2 (some centres unmarked)', 'RORγ receptor (Homo sapiens)', 'IC50', 'nM', 7),
  ('CS(=O)(=O)N1CCC(NC(=O)[C@@H]2CC[C@@]3(S(=O)(=O)c4ccc(F)cc4)c4ccc(C(F)(C(F)(F)F)C(F)(F)F)cc4CC[C@@H]23)CC1', 'RORγ receptor (Homo sapiens)', 'IC50', 'nM', 4),
  ('O=C(O)[C@H]1CC[C@](F)(C(=O)N[C@@H]2CC[C@@]3(S(=O)(=O)c4ccc(F)cc4)c4ccc(C(F)(C(F)(F)F)C(F)(F)F)cc4CC[C@@H]23)CC1', 'RORγ receptor (Homo sapiens)', 'IC50', 'nM', 24),
  ('CS(=O)(=O)N[C@H]1C[C@H](NC(=O)[C@@H]2CC[C@@]3(S(=O)(=O)c4ccc(F)cc4)c4ccc(C(F)(C(F)(F)F)C(F)(F)F)cc4CC[C@@H]23)C1', 'RORγ receptor (Homo sapiens)', 'IC50', 'nM', 52),
  ('NC(=O)[C@H]1CC(F)(F)CN1C(=O)[C@@H]1CC[C@@]2(S(=O)(=O)c3ccc(F)cc3)c3ccc(C(F)(C(F)(F)F)C(F)(F)F)cc3CC[C@@H]12', 'RORγ receptor (Homo sapiens)', 'IC50', 'nM', 15),
  ('O=C(CO)N1CCC(O)(C(=O)N[C@@H]2CC[C@@]3(S(=O)(=O)c4ccc(F)cc4)c4ccc(C(F)(C(F)(F)F)C(F)(F)F)cc4CC[C@@H]23)CC1', 'RORγ receptor (Homo sapiens)', 'IC50', 'nM', 4),
  ('O=C(O)C1CCCC(NC(=O)[C@@H]2CC[C@@]3(S(=O)(=O)c4ccc(F)cc4)c4ccc(C(F)(C(F)(F)F)C(F)(F)F)cc4CC[C@@H]23)C1 (some centres unmarked) [Example 98]', 'RORγ receptor (Homo sapiens)', 'IC50', 'nM', 22);

----------
# tested-target: UniProt:P51449
# measurement-notes: RORγ Gal4 reporter assay (Gal4-luciferase, inverse agonist activity)
# Assay type: cell-based
# condition-notes: Jurkat cells stably over-expressing hRORγ; Gal4-luciferase reporter; overnight incubation; read-out: RORγ Gal4, IC50
# Experimental: General RORγ Gal4 Reporter Assay IC50 values were determined.
pIC50: −log10 of the molar value.
Reported pIC50 values for the following compounds.
result-type: pIC50

INSERT INTO results (compound, tested_target, result_type, data_value) VALUES
  ('CC(NC(=O)c1ccncn1)[C@@H]1CC[C@@]2(S(=O)(=O)c3ccc(F)cc3)c3ccc(C(F)(C(F)(F)F)C(F)(F)F)cc3CC[C@@H]12 (some centres unmarked) [Example 262]', 'UniProt:P51449', 'pIC50', 7.06),
  ('CNC(=O)CN(CC(=O)NC)[C@@H]1CC[C@@]2(S(=O)(=O)c3ccc(F)cc3)c3ccc(C(F)(C(F)(F)F)C(F)(F)F)cc3CC[C@@H]12', 'UniProt:P51449', 'pIC50', 6.78),
  ('CC(C)(C(=O)N[C@@H]1CC[C@@]2(S(=O)(=O)c3ccc(F)cc3)c3ccc(C(F)(C(F)(F)F)C(F)(F)F)cc3CC[C@@H]12)N1CCNCC1', 'UniProt:P51449', 'pIC50', 7.20),
  ('C[C@H]1C[C@H](C(=O)O)CC[C@H]1C(=O)N[C@@H]1CC[C@@]2(S(=O)(=O)c3ccc(F)cc3)c3ccc(C(F)(C(F)(F)F)C(F)(F)F)cc3CC[C@@H]12', 'UniProt:P51449', 'pIC50', 7.49),
  ('C[C@H]1CN(C(=O)[C@@H]2CC[C@@]3(S(=O)(=O)c4ccc(F)cc4)c4ccc(C(F)(C(F)(F)F)C(F)(F)F)cc4CC[C@@H]23)CC[C@@H]1C(=O)O', 'UniProt:P51449', 'pIC50', 7.38),
  ('CS(=O)(=O)N1CCC(O)(C(=O)N[C@@H]2CC[C@@]3(S(=O)(=O)c4ccc(F)cc4)c4ccc(C(F)(C(F)(F)F)C(F)(F)F)cc4CC[C@@H]23)CC1', 'UniProt:P51449', 'pIC50', 8.15),
  ('O=C(N[C@H]1CC[C@H](C(=O)O)CC1)[C@@H]1CC[C@@]2(S(=O)(=O)c3ccc(F)cc3)c3ccc(C(F)(C(F)(F)F)C(F)(F)F)cc3CC[C@@H]12', 'UniProt:P51449', 'pIC50', 7.48),
  ('CC(NC(=O)[C@@H]1C[C@@H](F)C(=O)N1)[C@@H]1CC[C@@]2(S(=O)(=O)c3ccc(F)cc3)c3ccc(C(F)(C(F)(F)F)C(F)(F)F)cc3CC[C@@H]12 (some centres unmarked) [Example 267]', 'UniProt:P51449', 'pIC50', 7.82),
  ('CC(NS(=O)(=O)c1cnn(C)c1)[C@@H]1CC[C@@]2(S(=O)(=O)c3ccc(F)cc3)c3ccc(C(F)(C(F)(F)F)C(F)(F)F)cc3CC[C@@H]12 (some centres unmarked) [Example 273]', 'UniProt:P51449', 'pIC50', 7.59),
  ('CC(NC(=O)[C@H](C)N)[C@@H]1CC[C@@]2(S(=O)(=O)c3ccc(F)cc3)c3ccc(C(F)(C(F)(F)F)C(F)(F)F)cc3CC[C@@H]12 (some centres unmarked)', 'UniProt:P51449', 'pIC50', 7.35),
  ('Cn1cc(C(=O)N[C@@H]2CC[C@@]3(S(=O)(=O)c4ccc(F)cc4)c4ccc(C(F)(C(F)(F)F)C(F)(F)F)cc4CC[C@@H]23)ccc1=O', 'UniProt:P51449', 'pIC50', 8.05);

----------
# tested-target: RORγ receptor (Homo sapiens, UniProt P51449)
# Sequence (P51449 269-508): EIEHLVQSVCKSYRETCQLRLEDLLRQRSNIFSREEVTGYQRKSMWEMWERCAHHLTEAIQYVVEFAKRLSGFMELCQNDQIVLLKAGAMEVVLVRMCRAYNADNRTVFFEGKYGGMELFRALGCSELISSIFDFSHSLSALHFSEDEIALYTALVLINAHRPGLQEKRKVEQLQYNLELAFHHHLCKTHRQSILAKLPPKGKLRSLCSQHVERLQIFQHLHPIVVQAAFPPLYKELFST
# measurement-notes: RORγ Gal4 reporter assay (Gal4-luciferase, inverse agonist activity)
# Type: cell-based
# condition-notes: Jurkat cells stably over-expressing hRORγ; Gal4-luciferase reporter; overnight incubation; read-out: RORγ Gal4, IC50
pIC50: −log10 of the molar value.
Reported pIC50 values for the following compounds.
result-type: pIC50

INSERT INTO measurements (input_smiles, result_type, data_value) VALUES
  ('CS(=O)(=O)N1CC(O)(CNC(=O)[C@@H]2CC[C@@]3(S(=O)(=O)c4ccc(F)cc4)c4ccc(C(F)(C(F)(F)F)C(F)(F)F)cc4CC[C@@H]23)C1', 'pIC50', 7.72),
  ('O=C(O)c1ccc(C(=O)N[C@@H]2CC[C@@]3(S(=O)(=O)c4ccc(F)cc4)c4ccc(C(F)(C(F)(F)F)C(F)(F)F)cc4CC[C@@H]23)cc1', 'pIC50', 7.66),
  ('CS(=O)(=O)N[C@@H]1CC[C@@]2(S(=O)(=O)c3ccc(F)cc3)c3ccc(C(F)(C(F)(F)F)C(F)(F)F)cc3CC[C@@H]12', 'pIC50', 8.15);
